Origin of measurements: patent US9725460B2

Tested on: MDA-MB-231
Experiment: MTT cancer cell proliferation assay, MDA-MB-231
Format: cell-based, human
Conditions: Homo sapiens, MDA-MB-231, read-out: Antiproliferative effect MDA-MB-231 (IC50)
Experimental: In Vitro Determination of Effects of Synthesized Diterpenoids on Cancer Cell Proliferation. […] Absorbance of all wells was determined by measuring OD at 550 nm after a 10 min incubation on a 96-well GlowMaxate absorbance reader (Promega, Madison, Wis.). […]
readout_type: IC50 (µM)
One number for each entry, in µM.

System MDA-MB-231. Read-out IC50. Item "C=C1C(=O)[C@]23[C@H](O)[C@H]1CC[C@H]2[C@]12C=CC(=O)C(C)(C)[C@H]1[C@H](O)[C@@]3(O)OC2" . Report value.
9.39
